# Assay info: Biodistribution of 177Lu-labeled αMSH analogues in mice bearing B16F10 mouse melanoma
# Type: in vivo, C57BL/6J mice
# Particulars: mouse, stomach, iv, total radioactivity; 24 h p.i., C57BL/6J mice, B16F10 melanoma; read-out: Biodistribution, Stomach
# tissue uptake at 24 h annotations
Answer in %ID/g, number only, no unit symbol.

Solved entries:
| Compound | tissue uptake at 24 h (%ID/g) |
| --- | --- |
| CCCC[C@H](NC(=O)CN1CCC(NC(=O)CN2CCN(CC(=O)O)CCN(CC(=O)O)CCN(CC(=O)O)CC2)CC1)C(=O)N[C@H]1CC(=O)NCCCC[C@@H](C(N)=O)N(C)C(=O)[C@H](Cc2c[nH]c3ccccc23)N(C)C(=O)[C@H](CCCNC(=N)N)N(C)C(=O)[C@@H](Cc2ccccc2)NC(=O)[C@H](Cc2c[nH]cn2)N(C)C1=O [^177Lu-labeled CCZ01099, metal not drawn] | 0.53 |
| CCCC[C@H](NC(=O)CN1CCC(NC(=O)[C@H](CCCCNC(=O)CN2CCN(CC(=O)O)CCN(CC(=O)O)CCN(CC(=O)O)CC2)NC(=O)[C@H](CCC(=O)O)NC(=O)CCCc2ccc(I)cc2)CC1)C(=O)N[C@H]1CC(=O)NCCCC[C@@H](C(N)=O)N(C)C(=O)[C@H](Cc2c[nH]c3ccccc23)N(C)C(=O)[C@H](CCCNC(=N)N)N(C)C(=O)[C@@H](Cc2ccccc2)NC(=O)[C@H](Cc2c[nH]cn2)N(C)C1=O [^177Lu-labeled CCZ01088, metal not drawn] | 0.31 |
| CCCC[C@H](NC(=O)CN1CCC(NC(=O)CN2CCN(CC(=O)O)CCN(CC(=O)O)CCN(CC(=O)O)CC2)CC1)C(=O)N[C@H]1CC(=O)NCCCC[C@@H](C(N)=O)N(C)C(=O)[C@H](Cc2c[nH]c3ccccc23)NC(=O)[C@H](CCCNC(=N)N)N(C)C(=O)[C@@H](Cc2ccccc2)NC(=O)[C@H](Cc2c[nH]cn2)NC1=O [^177Lu-labeled CCZ01106, metal not drawn] | 0.42 |
| CCCC[C@H](NC(=O)CN1CCC(NC(=O)[C@H](CCCCNC(=O)CN2CCN(CC(=O)O)CCN(CC(=O)O)CCN(CC(=O)O)CC2)NC(=O)[C@H](CCC(=O)O)NC(=O)CCCc2ccc(I)cc2)CC1)C(=O)N[C@H]1CC(=O)NCCCC[C@@H](C(N)=O)NC(=O)[C@H](Cc2c[nH]c3ccccc23)NC(=O)[C@H](CCCNC(=N)N)NC(=O)[C@@H](Cc2ccccc2)NC(=O)[C@H](Cc2c[nH]cn2)NC1=O [^177Lu-labeled CCZ01082, metal not drawn] | 1.17 |

Q: GET /values?readout=tissue uptake at 24 h&item= CCCC[C@H](NC(=O)CN1CCC(NC(=O)[C@H](CCCCNC(=O)CN2CCN(CC(=O)O)CCN(CC(=O)O)CCN(CC(=O)O)CC2)NC(=O)[C@H](CCC(=O)O)NC(=O)CCCc2ccc(I)cc2)CC1)C(=O)N[C@H]1CC(=O)NCCCC[C@@H](C(N)=O)N(C)C(=O)[C@H](Cc2c[nH]c3ccccc23)NC(=O)[C@H](CCCNC(=N)N)N(C)C(=O)[C@@H](Cc2ccccc2)NC(=O)[C@H](Cc2c[nH]cn2)NC1=O [^177Lu-labeled CCZ01118, metal not drawn]
Result: 0.42
